- tested.on: CYP1A2 (Homo sapiens, UniProt P05177)
- Sequence (P05177 whole entry): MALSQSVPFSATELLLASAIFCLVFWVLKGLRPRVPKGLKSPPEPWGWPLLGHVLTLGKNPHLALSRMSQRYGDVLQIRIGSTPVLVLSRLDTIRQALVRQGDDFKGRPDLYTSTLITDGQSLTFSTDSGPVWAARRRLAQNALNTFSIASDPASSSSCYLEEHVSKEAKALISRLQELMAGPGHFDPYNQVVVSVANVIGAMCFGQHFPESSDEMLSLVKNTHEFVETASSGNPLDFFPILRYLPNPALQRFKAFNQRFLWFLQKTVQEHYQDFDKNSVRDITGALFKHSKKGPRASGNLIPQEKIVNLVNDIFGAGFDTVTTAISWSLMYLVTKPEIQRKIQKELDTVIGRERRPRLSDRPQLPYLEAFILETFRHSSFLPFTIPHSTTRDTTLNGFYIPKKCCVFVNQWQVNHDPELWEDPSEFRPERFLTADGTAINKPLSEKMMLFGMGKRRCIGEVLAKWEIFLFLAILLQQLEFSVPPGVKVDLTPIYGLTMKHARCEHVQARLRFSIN
- assay.text: Inhibition of CYP1A2 in human liver microsomes assessed as reduction in phenacetin O-deethylase activity at 10 uM preincubated for 5 mins followed by NADPH addition and measured after 15 mins by LC-MS/MS analysis relative to control
- Format: ADME
- test.conditions: probe phenacetin (O-deethylation)
measured.endpoint: inhibition at 0.25 h, 10 µM (%)
Give bare numbers, in %.

given.smiles	unit.abbrev	inhibition at 0.25 h, 10 µM
Cc1ccc(/C(=C(\CCCO)c2ccccc2)c2ccc(N3CCNCC3)cc2)cc1.Cl.Cl	%	28.7
CC(C)N1CCN(c2ccc(/C(=C(/CCCO)c3ccccc3)c3ccc(Br)cc3)cc2)CC1.Cl.Cl	%	6.5

Summary line: OCCC/C(=C(\c1ccc(Br)cc1)c1ccc(N2CCNCC2)cc1)c1ccccc1 , CYP1A2 (Homo sapiens, UniProt P05177), reported inhibition at 0.25 h, 10 µM = 15
